ASSAY_COMMENT: Pharmacokinetic analysis in ICR mice (plasma and liver)
Assay type: in vivo
EXPERIMENTAL_CONTEXT: male, plasma, po, mouse, 50 mg/kg P.O., Table 4, read-out: Total Plasma AUC, AUC (0-last)
PROPERTY_LABEL: AUC(0-t)

Problem: Give the value of AUC(0-t) reported for the following: O=C1NCCN1CC(O)Cn1c2ccc(F)cc2c2cc(F)ccc21 (stereo not shown)
Result: 4160 ng·h/mL

* * *

ASSAY_COMMENT: Pharmacokinetic analysis in SD rats (plasma)
Format: in vivo
EXPERIMENTAL_CONTEXT: male, po, rat, 50 mg/kg P.O., Table 4, read-out: Total Plasma AUC, AUC (0-last)
PROPERTY_LABEL: AUC(0-t) (ng·h/mL)
Answer in ng·h/mL, number only, no unit symbol.

Problem: Consider the compound O=C1NCCN1CC(O)Cn1c2ccc(F)cc2c2cc(F)ccc21 (stereo not shown) [Compound 72] and give its recorded AUC(0-t).
Result: 57900
